# ASSAY_SYSTEM: CKα1 (Homo sapiens, UniProt P35790)
# Construct: an N-terminally His-tagged truncated form of CKα1 (Δ75–457) was cloned into a pET-28a vector; His tag (N); made in house; host or cells: E. coli BL21 (DE3) Star
# Sequence (P35790 75-457): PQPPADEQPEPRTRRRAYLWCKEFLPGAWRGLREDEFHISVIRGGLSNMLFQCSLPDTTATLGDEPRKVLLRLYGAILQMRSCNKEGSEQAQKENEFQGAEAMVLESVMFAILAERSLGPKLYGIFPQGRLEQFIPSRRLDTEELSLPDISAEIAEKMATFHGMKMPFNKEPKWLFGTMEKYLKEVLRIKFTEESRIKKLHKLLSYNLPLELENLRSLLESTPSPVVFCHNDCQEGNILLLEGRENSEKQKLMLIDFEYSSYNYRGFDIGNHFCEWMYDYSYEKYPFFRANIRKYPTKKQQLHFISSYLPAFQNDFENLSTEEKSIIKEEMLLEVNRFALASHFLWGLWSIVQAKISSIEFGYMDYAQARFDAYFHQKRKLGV
# ASSAY_NAME: Choline kinase assay ([methyl-14C]choline into PCho, purified enzyme)
# Type: biochemical
# MEASUREMENT_CONDITIONS: concentration required to inhibit CKα1 enzyme by 50%
pIC50: −log10 of the molar value.
MEASUREMENT_TYPE: pIC50

Reference set (2 entries):
[Br-].[Br-].c1cc2c(s1)c(N1CCCC1)cc[n+]2Cc1ccc(CCCCc2ccc(C[n+]3ccc(N4CCCC4)c4sccc43)cc2)cc1	5.81
[Br-].[Br-].c1cc2c(s1)c(N1CCCC1)cc[n+]2Cc1ccc(CCc2ccc(C[n+]3ccc(N4CCCC4)c4sccc43)cc2)cc1	5.63

1 = [Br-].[Br-].c1cc2c(s1)c(N1CCCCC1)nc[n+]2Cc1ccc(CCCCc2ccc(C[n+]3cnc(N4CCCCC4)c4sccc43)cc2)cc1
2 = [Br-].[Br-].c1cc2c(s1)c(N1CCCCC1)nc[n+]2Cc1ccc(OCCOc2ccc(C[n+]3cnc(N4CCCCC4)c4sccc43)cc2)cc1
In: From the recorded data, which exceeds the other in pIC50: 1 or 2 ? Answer by quoting the chosen item's label.
Out: 1
(1: 5.78, 2: 5.49)

Numbers sourced from paper PMC9032693.
